- Test system: HCT-116
- protocol details: Cytotoxicity against Homo sapiens (human) HCT116 cells by CCK8-based colorimetric analysis
- Format: functional, cell-based
measurement kind: pIC50
Hey, just a heads up that pIC50 is the negative log base 10 of the concentration in molar.

pIC50 measured on `CCOc1ccc(/C=C2\CN(Cc3ccccc3)C/C(=C\c3ccc(OCC)cc3)C2=O)cc1` = 5.08

---

- System: PANC-1
- protocol details: Cytotoxicity against Homo sapiens (human) PANC1 cells by CCK8-based colorimetric analysis
- Format: functional, cell-based
measurement kind: IC50 (µM)
API: value field is a number in µM; no unit string.

IC50 measured on `CCOc1ccc(/C=C2\CN(Cc3ccccc3)C/C(=C\c3ccc(OCC)cc3)C2=O)cc1` = 7.2

Reference source: ChEMBL document CHEMBL3045643
